test: Single-dose pharmacokinetics in monkeys (p.o. and i.v.); type: in vivo, monkey; settings: monkey, plasma, oral, 1.5 mg/kg, monkey, 1,5 mg/kg p.o., 1 h, single animals; read-out: plasma conc
Quantity measured: concentration at 1 h
Lab note: write values as number then unit, every time.

Incoming: Specify concentration at 1 h for `CC#C[C@@H](CC(=O)O)c1ccc(OCC(C)=C(C)C)cc1` and stop.
Outgoing: 2250 ng/mL
